Source listed as patent US20240158391A1.

pKi by entry:
Target: FLT3-ITD (Homo sapiens)
Sequence (P36888 1-993): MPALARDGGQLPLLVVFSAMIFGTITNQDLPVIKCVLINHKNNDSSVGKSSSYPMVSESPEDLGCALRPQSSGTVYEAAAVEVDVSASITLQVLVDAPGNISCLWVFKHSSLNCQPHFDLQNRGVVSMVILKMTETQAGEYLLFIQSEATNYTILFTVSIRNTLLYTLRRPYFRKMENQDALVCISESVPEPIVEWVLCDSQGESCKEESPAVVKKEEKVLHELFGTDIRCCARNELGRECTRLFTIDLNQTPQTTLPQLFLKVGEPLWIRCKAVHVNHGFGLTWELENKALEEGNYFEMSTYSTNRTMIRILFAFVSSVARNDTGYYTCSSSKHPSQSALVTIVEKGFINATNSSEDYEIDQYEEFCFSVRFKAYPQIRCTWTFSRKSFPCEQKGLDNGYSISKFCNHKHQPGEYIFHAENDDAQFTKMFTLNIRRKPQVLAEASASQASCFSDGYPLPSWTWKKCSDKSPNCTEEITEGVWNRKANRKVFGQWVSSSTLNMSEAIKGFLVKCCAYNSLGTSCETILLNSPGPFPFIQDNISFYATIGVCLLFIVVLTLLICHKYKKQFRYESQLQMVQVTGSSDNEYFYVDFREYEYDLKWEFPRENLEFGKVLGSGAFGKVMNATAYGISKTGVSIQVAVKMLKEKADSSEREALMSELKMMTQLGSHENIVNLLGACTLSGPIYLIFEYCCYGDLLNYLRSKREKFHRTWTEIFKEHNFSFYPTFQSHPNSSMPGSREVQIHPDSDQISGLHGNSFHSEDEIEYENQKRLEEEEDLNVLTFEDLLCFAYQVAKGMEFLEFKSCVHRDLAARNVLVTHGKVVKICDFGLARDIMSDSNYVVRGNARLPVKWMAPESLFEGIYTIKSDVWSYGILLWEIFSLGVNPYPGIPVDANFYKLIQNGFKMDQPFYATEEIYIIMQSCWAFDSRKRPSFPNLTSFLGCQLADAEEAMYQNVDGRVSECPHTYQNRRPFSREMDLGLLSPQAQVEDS
Experiment: ADP Glo kinase assay, FLT3-ITD
Settings: Km ATP 100 μM, read-out: Enzymatic inhibition, Ki, FLT3-ITD
API: returns pKi as number; meaning -log10 of concentration in mol/L.

CC(C)N1CCN(c2ccc(Nc3nccc(-c4cnc5ccc(Br)cn45)n3)cn2)CC1 :: 8.00
CC(C)N1CCN(c2ccc(Nc3nccc(-c4cnc5ccc(-c6ccc(F)nc6)cn45)n3)cn2)CC1 :: 7.55
CC(C)N1CCN(c2ccc(Nc3nccc(-c4cnc5ccc(Cl)cn45)n3)cn2)CC1 :: 7.59

Q. Please report pKi for the following compound: "CCS(=O)(=O)N1CCN(c2ccc(Nc3nccc(-c4cnc5ccc(-c6ccc(F)nc6)cn45)n3)cn2)CC1"
A. 6.83

Q. Please report pKi for the following compound: "CS(=O)(=O)N1CCN(c2ccc(Nc3nccc(-c4cnc5ccc(-c6ccncc6)cn45)n3)cn2)CC1"
A. 7.57
